The origin of these recorded values is patent US10464978B2.

- measured_on: HLA-A*02:01 (Homo sapiens, UniProt P04439, D140Y/D185E/D98H/E176V/E277Q/G131W/G231S/I119V/I121R/I166T/I218V/L300P/L318F/N151K/N90K/P208A/P217A/Q86G/Q94H/R138H/R169H/T345S)
- test_name: MHC binding assay: UV-ligand exchange with beta2m ELISA (peptide exchange yield)
- test_conditions: binding to HLA-A*02:01
- From the text: Candidate peptides for T cell based therapies according to the present invention were further tested for their MHC binding capacity (affinity). The individual peptide-MHC complexes were produced by UV-ligand exchange, where a UV-sensitive peptide is cleaved upon UV-irradiation, and exchanged with the peptide of interest as analyzed. Only peptide candidates that can effectively bind and stabilize the peptide-receptive MHC molecules prevent dissociation of the MHC complexes. […]
observed_property: Peptide exchange (MHC class I binding score, peptide exchange yield)

{"substance": "562 (YLEELPEKLKL; listed as Homo sapiens) [compound 562]", "data_value": "“+++” (≥50 = +++)"}
{"substance": "468 (YLRSVGDGETV; listed as Homo sapiens) [compound 468]", "data_value": "“+++” (≥50 = +++)"}
{"substance": "459 (ALITEVVRL; listed as Homo sapiens) [compound 459]", "data_value": "“++” (≥20% = ++)"}
{"substance": "3 (SLASKLTTL; listed as Homo sapiens) [compound 3]", "data_value": "“++++” (≥75% = ++++)"}
{"substance": "619 (ALQDRVPLA; listed as Homo sapiens) [compound 619]", "data_value": "“+++” (≥50 = +++)"}
{"substance": "236 (GLLEAKVSL; listed as Homo sapiens) [compound 236]", "data_value": "“+++” (≥50 = +++)"}
{"substance": "196 (YLYSVEIKL; listed as Homo sapiens) [compound 196]", "data_value": "“++++” (≥75% = ++++)"}
{"substance": "348 (ILLDVKTRL; listed as Homo sapiens) [compound 348]", "data_value": "“++++” (≥75% = ++++)"}
{"substance": "592 (RLLSAAENFL; listed as Homo sapiens) [compound 592]", "data_value": "“+++” (≥50 = +++)"}
{"substance": "31 (YLAPELFVNV; listed as Homo sapiens) [compound 31]", "data_value": "“++” (≥20% = ++)"}
{"substance": "514 (ILVDWLVQV; listed as Homo sapiens) [compound 514]", "data_value": "“+++” (≥50 = +++)"}
{"substance": "518 (KLNAEVACV; listed as Homo sapiens) [compound 518]", "data_value": "“+++” (≥50 = +++)"}
{"substance": "35 (KINDTIYEV; listed as Homo sapiens) [compound 35]", "data_value": "“+++” (≥50 = +++)"}

----------
- measured_on: HLA-A*02:01 (Homo sapiens, UniProt P04439, D140Y/D185E/D98H/E176V/E277Q/G131W/G231S/I119V/I121R/I166T/I218V/L300P/L318F/N151K/N90K/P208A/P217A/Q86G/Q94H/R138H/R169H/T345S)
- test_name: MHC binding assay: UV-ligand exchange with beta2m ELISA (peptide exchange yield)
- test_conditions: binding to HLA-A*02:01
observed_property: Peptide exchange (MHC class I binding score, peptide exchange yield)

{"substance": "165 (SLLDEIRAV; listed as Homo sapiens) [compound 165]", "data_value": "“+++” (≥50 = +++)"}
{"substance": "525 (VLLEAGEGLVTI; listed as Homo sapiens) [compound 525]", "data_value": "“+++” (≥50 = +++)"}
{"substance": "28 (QLLDETSAITL; listed as Homo sapiens) [compound 28]", "data_value": "“+++” (≥50 = +++)"}
{"substance": "617 (ALMYESEKVGV; listed as Homo sapiens) [compound 617]", "data_value": "“+++” (≥50 = +++)"}
{"substance": "488 (FLAEDPKVTL; listed as Homo sapiens) [compound 488]", "data_value": "“+++” (≥50 = +++)"}
{"substance": "331 (KVDTVWVNV; listed as Homo sapiens) [compound 331]", "data_value": "“+++” (≥50 = +++)"}
{"substance": "564 (TVTNAVVTV; listed as Homo sapiens) [compound 564]", "data_value": "“+++” (≥50 = +++)"}
{"substance": "403 (KLYDRILRV; listed as Homo sapiens) [compound 403]", "data_value": "“++” (≥20% = ++)"}
{"substance": "450 (FMIDASVHPTL; listed as Homo sapiens) [compound 450]", "data_value": "“+++” (≥50 = +++)"}
{"substance": "49 (YLPAVFEEV; listed as Homo sapiens) [compound 49]", "data_value": "“+++” (≥50 = +++)"}
{"substance": "295 (VLDRESPNV; listed as Homo sapiens) [compound 295]", "data_value": "“+++” (≥50 = +++)"}
{"substance": "355 (SIQQSIERLLV; listed as Homo sapiens) [compound 355]", "data_value": "“++” (≥20% = ++)"}
{"substance": "606 (ALWETEVYI; listed as Homo sapiens) [compound 606]", "data_value": "“+++” (≥50 = +++)"}
{"substance": "134 (YLQELIFSV; listed as Homo sapiens) [compound 134]", "data_value": "“+++” (≥50 = +++)"}
{"substance": "453 (KLLEATSAV; listed as Homo sapiens) [compound 453]", "data_value": "“++” (≥20% = ++)"}
{"substance": "516 (AVGPASILKEV; listed as Homo sapiens) [compound 516]", "data_value": "“++” (≥20% = ++)"}
{"substance": "18 (YLVAKLVEV; listed as Homo sapiens) [compound 18]", "data_value": "“++” (≥20% = ++)"}
{"substance": "574 (YLLQEPPRTV; listed as Homo sapiens) [compound 574]", "data_value": "“++” (≥20% = ++)"}
{"substance": "563 (WLLPYNGVTV; listed as Homo sapiens) [compound 563]", "data_value": "“+++” (≥50 = +++)"}
{"substance": "575 (YLISQVEGHQV; listed as Homo sapiens) [compound 575]", "data_value": "“+++” (≥50 = +++)"}
{"substance": "130 (FLWNGEDSALL; listed as Homo sapiens) [compound 130]", "data_value": "“+++” (≥50 = +++)"}
